target: Cyclin-dependent kinase 13 ; CDK13 ; Q14004 (Homo sapiens); test: biochemical
Sequence (Q14004 whole entry, one chain of several): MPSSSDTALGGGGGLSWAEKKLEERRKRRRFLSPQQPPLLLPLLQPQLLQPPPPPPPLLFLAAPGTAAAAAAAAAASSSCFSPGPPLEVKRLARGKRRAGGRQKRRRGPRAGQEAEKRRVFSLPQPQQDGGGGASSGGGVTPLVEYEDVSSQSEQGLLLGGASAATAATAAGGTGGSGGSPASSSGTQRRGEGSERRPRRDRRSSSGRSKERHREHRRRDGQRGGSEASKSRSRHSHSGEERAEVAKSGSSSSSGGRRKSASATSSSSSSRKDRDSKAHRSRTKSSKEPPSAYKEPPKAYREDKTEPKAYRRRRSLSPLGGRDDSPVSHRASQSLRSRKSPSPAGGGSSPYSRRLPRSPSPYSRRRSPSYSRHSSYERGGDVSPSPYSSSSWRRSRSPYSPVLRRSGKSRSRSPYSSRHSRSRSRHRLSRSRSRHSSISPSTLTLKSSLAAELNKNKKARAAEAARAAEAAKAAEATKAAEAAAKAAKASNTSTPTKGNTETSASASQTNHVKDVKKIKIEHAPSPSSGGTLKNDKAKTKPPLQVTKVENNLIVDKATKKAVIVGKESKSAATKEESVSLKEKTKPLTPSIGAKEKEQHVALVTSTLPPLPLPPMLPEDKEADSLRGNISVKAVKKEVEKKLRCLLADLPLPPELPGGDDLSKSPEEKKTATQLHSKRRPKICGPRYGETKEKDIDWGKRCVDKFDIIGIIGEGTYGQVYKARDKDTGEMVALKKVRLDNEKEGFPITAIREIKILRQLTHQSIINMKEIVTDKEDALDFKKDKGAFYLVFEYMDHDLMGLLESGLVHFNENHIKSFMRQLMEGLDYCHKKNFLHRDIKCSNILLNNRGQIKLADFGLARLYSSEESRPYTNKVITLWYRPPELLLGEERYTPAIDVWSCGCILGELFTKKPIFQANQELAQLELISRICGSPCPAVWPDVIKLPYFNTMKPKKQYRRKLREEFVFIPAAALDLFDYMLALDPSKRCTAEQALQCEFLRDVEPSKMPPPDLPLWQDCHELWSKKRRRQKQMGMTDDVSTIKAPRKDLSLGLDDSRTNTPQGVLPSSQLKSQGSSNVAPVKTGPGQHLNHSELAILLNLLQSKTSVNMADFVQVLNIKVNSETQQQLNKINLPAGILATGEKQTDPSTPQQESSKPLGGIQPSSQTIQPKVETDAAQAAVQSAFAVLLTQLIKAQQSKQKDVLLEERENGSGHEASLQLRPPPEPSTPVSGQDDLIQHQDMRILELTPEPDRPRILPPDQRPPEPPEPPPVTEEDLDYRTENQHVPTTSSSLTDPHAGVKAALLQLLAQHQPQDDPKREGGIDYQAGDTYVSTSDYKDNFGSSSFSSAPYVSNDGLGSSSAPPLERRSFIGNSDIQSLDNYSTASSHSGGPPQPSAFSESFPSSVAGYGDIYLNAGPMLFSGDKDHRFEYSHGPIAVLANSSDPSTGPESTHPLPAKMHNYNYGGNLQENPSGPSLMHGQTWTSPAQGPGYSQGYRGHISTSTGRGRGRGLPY
pIC50: −log10 of the molar value.
measured_property: pIC50

                                   compound  measured_property  measurement
0  COc1cc(F)ccc1-c1cc(Nc2cc(CS(C)(=N)=O)ccn2)ncc1F (centres unmarked)              pIC50       < 5.00

Please give the measured pIC50 for this compound: COc1cc(F)ccc1-c1ncnc(Nc2cccc(C[S@](C)(=N)=O)c2)n1
< 5.00

* * *

biological target: Cyclin-dependent kinase 7 ; CDK7 ; P50613 (Homo sapiens, UniProt P50613); assay: biochemical
Sequence (P50613 whole entry, one chain of several): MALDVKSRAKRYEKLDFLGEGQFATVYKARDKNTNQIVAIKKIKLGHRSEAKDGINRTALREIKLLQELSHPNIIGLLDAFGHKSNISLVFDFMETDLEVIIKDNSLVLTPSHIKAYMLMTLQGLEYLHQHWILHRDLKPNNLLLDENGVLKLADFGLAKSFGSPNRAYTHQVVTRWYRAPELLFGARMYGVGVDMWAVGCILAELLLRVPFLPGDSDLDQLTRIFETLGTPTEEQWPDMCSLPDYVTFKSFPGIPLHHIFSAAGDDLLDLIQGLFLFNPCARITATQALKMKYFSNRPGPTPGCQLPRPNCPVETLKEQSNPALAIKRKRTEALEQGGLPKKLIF
pIC50: −log10 of the molar value.
measured_property: pIC50

Please give the measured pIC50 for this molecule: COc1cc(F)ccc1-c1cc(Nc2cc(CS(C)(=N)=O)ccn2)ncc1F (stereo not shown)
< 5.00
